# testedSystem: Prothrombin (Homo sapiens)
# testDetails: Inhibition of human alpha-thrombin assessed as spectrozyme TH hydrolysis after 10 mins by spectrophotometric analysis
# statedConditions: read-out: IC50
quantity: IC50 (µM)

Please review the following examples before continuing.
CCOC(=O)c1c(C)oc2cc(OC(C)C)c(OS(=O)(=O)O)cc12 ... 13700
CCOC(=O)c1c(C)oc2cc(OCC)c(OCc3oc4cc(OCC)c(OS(=O)(=O)[O-])cc4c3C(=O)OCC)cc12.[Na+] ... 121

[A] CCOC(=O)c1c(C)oc2cc(OC(C)C)c(OCc3oc4cc(OC(C)C)c(OS(=O)(=O)O)cc4c3C(=O)OCC)cc12
[B] CCOC(=O)c1c(C)oc2cc(OCc3oc4cc(OC)c(OS(=O)(=O)O)cc4c3C(=O)OCC)c(OS(=O)(=O)O)cc12
Of the pair A and B , name the member with the lesser recorded IC50. The response must carry the label of the picked entry.
A
(A: 30 µM, B: 764 µM)
